assay: Luminescence activity assay of purified Gaussia luciferase mutants on coelenterazine derivative ZS2; type: biochemical; parameters: key: ratio of mutant luminescence intensity to wild-type Gaussia luciferase; settings: Substrate ZS2 (Table 16)
Reported metric: Activity of mutant relative to wild-type Gaussia luciferase without the signal peptide
// keep it numeric: no unit symbol after the value

Here are 8 molecules together with their reported answers.
A42G Q152H T167G S170T G174N K178S A182Y G183A: Gaussia luciferase mutant (protein, SIGNAL (1)..(17), Gaussia luciferase mutant) MGVKVLFALICIAVAEAKPTENNEDFNIVAVASNFATTDLDGDRGKLPGKKLPLEVLKEMEANARKAGCTRGCLICLSHIKCTPKMKKFIPGRCHTYEGDKESAQGGIGEAIVDIPEIPGFKDLEPMEQFIAQVDLCVDCTTGCLKGLANVHCSDLLKKWLPQRCAGFATKIQNQVDSIKGYAGD: 0.001
Q152H Q163D T167S S170N A182L G183A: Gaussia luciferase mutant (protein, SIGNAL (1)..(17), Gaussia luciferase mutant) MGVKVLFALICIAVAEAKPTENNEDFNIVAVASNFATTDLDADRGKLPGKKLPLEVLKEMEANARKAGCTRGCLICLSHIKCTPKMKKFIPGRCHTYEGDKESAQGGIGEAIVDIPEIPGFKDLEPMEQFIAQVDLCVDCTTGCLKGLANVHCSDLLKKWLPDRCASFANKIQGQVDKIKGLAGD: 0.698
Q152H Q163D T167S S170D G174K Q175E K178S A182Y G183N: Gaussia luciferase mutant (protein, SIGNAL (1)..(17), Gaussia luciferase mutant) MGVKVLFALICIAVAEAKPTENNEDFNIVAVASNFATTDLDADRGKLPGKKLPLEVLKEMEANARKAGCTRGCLICLSHIKCTPKMKKFIPGRCHTYEGDKESAQGGIGEAIVDIPEIPGFKDLEPMEQFIAQVDLCVDCTTGCLKGLANVHCSDLLKKWLPDRCASFADKIQKEVDSIKGYNGD: 0.068
P84A E102A S103I D123L V138D: Gaussia luciferase mutant (protein, SIGNAL (1)..(17), Gaussia luciferase mutant) MGVKVLFALICIAVAEAKPTENNEDFNIVAVASNFATTDLDADRGKLPGKKLPLEVLKEMEANARKAGCTRGCLICLSHIKCTAKMKKFIPGRCHTYEGDKAIAQGGIGEAIVDIPEIPGFKLLEPMEQFIAQVDLCDDCTTGCLKGLANVQCSDLLKKWLPQRCATFASKIQGQVDKIKGAGGD: 0.825
F26L N27H V29C V31I S33V A36Q T37S L40G: Gaussia luciferase mutant (protein, SIGNAL (1)..(17), Gaussia luciferase mutant) MGVKVLFALICIAVAEAKPTENNEDLHICAIAVNFQSTDGDADRGKLPGKKLPLEVLKEMEANARKAGCTRGCLICLSHIKCTPKMKKFIPGRCHTYEGDKESAQGGIGEAIVDIPEIPGFKDLEPMEQFIAQVDLCVDCTTGCLKGLANVQCSDLLKKWLPQRCATFASKIQGQVDKIKGAGGD: 0.067
Q152R T167G G174S Q175E K178N A182Y G183A: Gaussia luciferase mutant (protein, SIGNAL (1)..(17), Gaussia luciferase mutant) MGVKVLFALICIAVAEAKPTENNEDFNIVAVASNFATTDLDADRGKLPGKKLPLEVLKEMEANARKAGCTRGCLICLSHIKCTPKMKKFIPGRCHTYEGDKESAQGGIGEAIVDIPEIPGFKDLEPMEQFIAQVDLCVDCTTGCLKGLANVRCSDLLKKWLPQRCAGFASKIQSEVDNIKGYAGD: 0.481
F26T N27N V29E V31I A32G S33V A36R T37G L40G: Gaussia luciferase mutant (protein, SIGNAL (1)..(17), Gaussia luciferase mutant) MGVKVLFALICIAVAEAKPTENNEDTNIEAIGVNFRGTDGDADRGKLPGKKLPLEVLKEMEANARKAGCTRGCLICLSHIKCTPKMKKFIPGRCHTYEGDKESAQGGIGEAIVDIPEIPGFKDLEPMEQFIAQVDLCVDCTTGCLKGLANVQCSDLLKKWLPQRCATFASKIQGQVDKIKGAGGD: 1.995
P84K E102A: Gaussia luciferase mutant (protein, SIGNAL (1)..(17), Gaussia luciferase mutant) MGVKVLFALICIAVAEAKPTENNEDFNIVAVASNFATTDLDADRGKLPGKKLPLEVLKEMEANARKAGCTRGCLICLSHIKCTKKMKKFIPGRCHTYEGDKASAQGGIGEAIVDIPEIPGFKDLEPMEQFIAQVDLCVDCTTGCLKGLANVQCSDLLKKWLPQRCATFASKIQGQVDKIKGAGGD: 0.001

Now let's try a different one.
Activity of mutant relative to wild-type Gaussia luciferase without the signal peptide reading for P84A E102A S103I E110P D123N: Gaussia luciferase mutant (protein, SIGNAL (1)..(17), Gaussia luciferase mutant) MGVKVLFALICIAVAEAKPTENNEDFNIVAVASNFATTDLDADRGKLPGKKLPLEVLKEMEANARKAGCTRGCLICLSHIKCTAKMKKFIPGRCHTYEGDKAIAQGGIGPAIVDIPEIPGFKNLEPMEQFIAQVDLCVDCTTGCLKGLANVQCSDLLKKWLPQRCATFASKIQGQVDKIKGAGGD : 1.409
